In this section we review reported pKd values for a set of binders.
target: ZIKV-derived sNS1 (Zika virus, strain ; stand-in …, UniProt A0A146CJG7)
assay_overview: ELISA
pKd: −log10 of the molar value.
quantity_measured: pKd

mAb 2E11 (IgG) (antibody, V domains shown) VH: SVELIESGGGVVQPGRSLRLSCAASGFTFSNYAMHWVRQAPGKGLEWVAFISYDGSNKYYADSVKGRFTISRDNSKNTLSLQMNSLRAEDTALYYCARVFNGYEGDYWGQGTLVTVSS VL: LPVLTQPPSVSVSPGQTARITCSGDALPKKYAYWYQQKSGQAPVLVIYEDSKRPSGIPERFSGSSSGTMATLTISGAQVEDEADYYCYSTDSSGNLYVFGTGTKVTVL
9.66
mAb 4F10 (IgG) (antibody, V domains shown) VH: EVQLLESGPGLVKPSQTLSLTCTVSGGSISSGGYYWSWIRQHPGKGLEWIGYIYYSGSTYYNPSLKSRVAMSVDTSKNQFSLTLSSVTAADTAVYYCARAIDNFYDNSIWGQGTLVTVSS VL: DIQMTQSPSSLSASVGDRVTIACRASQSITNFLNWYQQKPGKAPKLLIYAVSNLQSGVPSRFSGSGSGTDFTLTISSVRPEDFATYFCQQSYSPPYTFGQGTKVDIK
10.22
mAb 3G2 (IgG) (antibody, V domains shown) VH: EVQLLESGGGLIQPGGSLRLSCAASGLTVSNNYMNWVRQAPGKGLEWVSIIYSSGSTYYADSVKGRFTISRDTRKNTLYLQMHSLRVEDTAVYYCARERGWLDYWGQGTLVTVSS VL: VIWMTQSPSSLSASVGDRVTITCRASQSVSSHLNWYQQKPGKAPKLLIYAVSSLQSGVPSRFSGGDSGTDFTLTIASLQPEDFATYYCQQTYTIPRTFGQGTKVEIK
9.92
mAb 4B8 (IgG) (antibody, V domains shown) VH: EVQLVESGGGLIQPGGSLRLSCAASGFTISSKYMSWVRQAPGKGLEWVSIIYSSGSTYYADSVKGRFTISRDISKNTLYLQMNSLRAEDTAVYYCASLGSGSAFGYWGQGTLVTVSS VL: DIVMTQSPSSVSASVGDRVTITCRASQGISTWLAWYQQKPGKAPRLLIYAASSLQSGVPSRFSGSGSGTDFTLTISSLQPEDFATYYCQQANSFPFTFGPGTKVEIK
9.10
mAb 14G5 (IgG) (antibody, V domains shown) VH: QVQLVQSGAEVKKPGESLKISCKGSGYSFTSYWIGWVRQMPGKGLEWMGIIYPGDSDTRYSPSFQGQVTMSADRSISTAYLQWSSLKASDTAMYYCARSNVDGSTDYWGQGTLVTVSS VL: SYELTQPPSVSVSPGQTARITCSGDALPKQYAFWYQQKPGQAPVLVIYKDSERPSGIPERFSGSSSGTTVTLTISGVQAEDEADYYCQSADSSDTYVPYVFGTGTKVTVL
9.82
